Values from the supplement of paper PMC13380429

# Test system: A549-ACE2
# method_summary: drug-induced phospholipidosis relative to tamoxifen; higher = more phospholipidosis
# details: 0.833333 µM; 72 h
Measured drug-induced phospholipidosis by item
Return type: number; implicit unit %.

>  <compound>
O=C(COc1ccc(Cl)cc1)N[C@H]1CC[C@H](NC(=O)COc2ccc(Cl)cc2)CC1

>  <observed>
-0.0303

$$$$

Can you share its drug-induced phospholipidosis? I mean this compound: `O=C1C=C2C=C[C@@H]3C[C@@]2(O1)[C@H]1CCCCN31`
-2.31

// returns reported drug-induced phospholipidosis for input `Fc1ccc(-n2cc(CCCCN3CCC4(CC3)OCc3ccccc34)c3ccccc32)cc1`
0.623

Reported drug-induced phospholipidosis, compound `Cc1[nH]c(/C=C2\C(=O)Nc3ccc(F)cc32)c(C)c1C(=O)NCCN1CCCC1` : ____
-2.8

Which drug-induced phospholipidosis value is on record for CSc1ccc2c(c1)[C@H](N1CCN(C)CC1)Cc1ccccc1S2 (racemic) [metitepine] ?
6.23

###

# Test system: Vero E6
# method_summary: cell viability relative to DMSO; higher = less toxic
# details: 72 h; 10000 nM
Listing: cell viability of selected molecules
Hi! Could you send only the number? It should be in %, unit omitted.

Sample records with cell viability:
>  <molecule>
CN(C)C/C=C/C(=O)Nc1ccc(C(=O)Nc2cccc(Nc3ncc(Cl)c(-c4c[nH]c5ccccc45)n3)c2)cc1

>  <observed>
11.4

$$$$
>  <molecule>
Cc1nc2cnc3ccc(C#Cc4cccnc4)cc3c2n1-c1ccc(C(C)(C)C#N)cc1

>  <observed>
35.3

$$$$

Sample C[C@]12CC[C@@H](O)C[C@H]1CC[C@@H]1[C@@H]2CC[C@]2(C)C(=O)CC[C@@H]12 [3-alpha-hydroxy-5-beta-androstan-17-one] — what was its cell viability?
94.3

What value of cell viability has been reported for the following molecule? COc1cc2c(cc1OC)[C@H](C)NCC2 [Isoquinoline,-6,7-dimethoxy-1-methyl-1,2,3,4-tetrahydro,]
106

Requested read-out: cell viability. Entry: `Nc1nc(-c2ccc(Cl)c(Cl)c2)c(-c2ccncc2)s1`
93.9

Consider the molecule `CN(C)c1nc(N(C)C)nc(N(C)C)n1` and give its measured cell viability.
101

Looking for the measured cell viability of O=C(Nc1ccccc1)OCC(CN1CCCCC1)OC(=O)Nc1ccccc1 (configuration not stated) , can you help?
100

Please give the measured cell viability for this molecule: `C=C1C(=O)[C@]23[C@H](O)[C@H]1CC[C@H]2[C@@]12CO[C@]3(O)[C@@H](O)[C@@H]1C(C)(C)CC[C@@H]2O`
79.7

Field request: cell viability | item: `Cc1ncc(CO)c(CO)c1O`
106

Requested field: cell viability. Item: `COc1cc2c(cc1OC)-c1cc3nc4ccccc4nc3n1C(C)(C)C2`
107

Give its cell viability value. Item: `CC(C)(C)C#Cc1cc(N(C(=O)[C@H]2CC[C@H](C)CC2)[C@H]2CC[C@@H](O)CC2)c(C(=O)O)s1`
102

Any idea what cell viability was measured for `Oc1ccc(Cl)cc1Cc1cc(Cl)ccc1O` ?
86.7

###

List of cell viability values.
# Test system: Calu-3
# method_summary: cell viability relative to DMSO; higher = less toxic
# details: 72 h; 10 nM
Note: unit % is implicit; provide only the numeric part.

>  <molecule>
CC(C)(C)NCC(O)c1cc(Br)no1 (centres undefined)

>  <cell viability, %>
95.4

$$$$
>  <molecule>
O=S1(=O)OC(c2ccc(O)cc2)(c2ccc(O)cc2)c2ccccc21

>  <cell viability, %>
104

$$$$
>  <molecule>
CN1C(=O)COc2c(C(=O)NC3CN4CCC3CC4)cc(Cl)cc21 (centres undefined)

>  <cell viability, %>
93.1

$$$$
>  <molecule>
O=C(CSc1nc2c(c(=O)n1-c1ccccc1)SCC2)Nc1ccc(-c2ccccc2)cn1

>  <cell viability, %>
96.6

$$$$

Find the recorded cell viability belonging to `CN1C(C(=O)Nc2ccccn2)=C(O)c2ccccc2S1(=O)=O` and report it.
95.5

Query: cell viability; subject: `N[C@@H](Cc1cc(I)c(Oc2ccc(O)c(I)c2)c(I)c1)C(=O)O`
96.8

What value of measured cell viability is listed for `C[C@H](c1ccc(F)cc1CCCC(=O)O)N(c1cc(F)ccc1F)S(=O)(=O)c1ccc(Cl)cc1` ?
98.9

Given CC(C)(C)C(=O)OCC(=O)[C@H]1CC[C@H]2[C@@H]3CCC4=CC(=O)CC[C@]4(C)[C@H]3CC[C@]12C [desoxycorticosterone-pivalate] , state its recorded cell viability.
90.9

Need cell viability of COC(=O)CCC(=O)CN [methyl-aminolevulinate] , thanks.
96.5

Report cell viability for `OCc1ccccc1O` please.
109

// cell viability lookup, key: CC(CNC1CCCCC1)OC(=O)c1ccccc1 (centres undefined)
107

Using the record for COc1cc2c(cc1OC)[C@H](C)NCC2 [Isoquinoline,-6,7-dimethoxy-1-methyl-1,2,3,4-tetrahydro,] , report its cell viability.
104

Entry under review: NC1CCN(c2c(F)cc3c(=O)c(C(=O)O)cn(C4CC4)c3c2Cl)C1 (centres undefined) . Reported cell viability?
94.4

Fill in the blank: the reported cell viability of `COc1cc(Cc2cnc(N)nc2N)c(C(C)C)cc1OC` is ____.
87.8

Name the recorded cell viability for `CCOc1ccc(NC(C)=O)cc1` .
90.8

cell viability lookup needed for CCCNC(C)C(=O)Nc1c(C)csc1C(=O)OC (centres undefined) , thanks.
94.6

Look up cell viability: `CC(C)c1cc(-c2ccc(F)c3ccccc23)nc(N)n1`
103

Data request, read-out cell viability, for `CN1C(=O)N(c2cc(Cl)cc(Cl)c2)C(=O)[C@@]1(C)Cc1ccc(Br)cc1`
92.8

Would you kindly share the measured cell viability for `Cc1cccc(-c2nn3c(c2-c2ccnc4ccc(C(N)=O)cc24)CCC3)n1` ?
108
